Source of measurements: patent US20210024646A1

Target: T1, extracellular domain of human CD73 protein (CD73-ECD), C-terminus polyhistidine-tagged (UniProt P21589 27-547)
T1 chain: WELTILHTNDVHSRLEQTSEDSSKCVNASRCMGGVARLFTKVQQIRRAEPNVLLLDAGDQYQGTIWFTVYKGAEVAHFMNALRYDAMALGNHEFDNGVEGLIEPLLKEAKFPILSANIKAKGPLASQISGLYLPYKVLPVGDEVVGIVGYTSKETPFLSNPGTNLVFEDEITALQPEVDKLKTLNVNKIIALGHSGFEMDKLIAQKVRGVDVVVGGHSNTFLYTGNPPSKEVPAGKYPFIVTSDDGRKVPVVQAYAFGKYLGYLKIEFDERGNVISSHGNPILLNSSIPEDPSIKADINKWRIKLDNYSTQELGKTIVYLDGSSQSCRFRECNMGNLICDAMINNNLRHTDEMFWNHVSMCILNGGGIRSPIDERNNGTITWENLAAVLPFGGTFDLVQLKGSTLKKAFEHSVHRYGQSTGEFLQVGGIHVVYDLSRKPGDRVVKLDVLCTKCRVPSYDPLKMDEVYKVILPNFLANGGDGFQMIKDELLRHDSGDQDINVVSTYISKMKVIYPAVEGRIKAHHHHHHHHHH
Assay: enzyme inhibition; right table
metric: IC50 (nM)
Answer in nM, number only, no unit symbol.

Qu. For the binder shown here, Hu002c-14 (antibody, V domains shown) VH: QVQLVQSGAEVKKPGASVKVSCKASGYTLTSYWMHWVKKAPGQGLEWIGEINPSQGRSNYNEKFKSKVTLTVDRSTSTVYMELSSLRSEDTAVYYCARRGVSGNYFDYWGQGTLVTVSS VL: DIQMTQSPSSLSASVGDRVTITCKASQDINTYLSWFQQKPGKAPKSLIYRSNILVSGVPSRFSGSGSGQDYTLTISSLQPEDFATYYCLQYDEFPYTFGQGTKLEIK , give the reported IC50.
Ans. 0.058
